Test system: Escherichia coli TOP10
Assay: shrunken log2 fold change of peptide-encoding DNA abundance (4.5 h post-induction vs induction); higher = less antimicrobial activity (less host growth inhibition)
Details: time post-induction: 4.5 h; library: site-saturation at positions 5, 18, 19, 20
Listing of entries alongside the reported shrunken log2 fold change.
Just the number, please, no unit after it.

Some entries whose results are on file:
| ordered residues | system | recorded value |
| --- | --- | --- |
| RRIRMRPPRLPRPRPRPNCLPRP | Escherichia coli TOP10 | -0.00154 |
| RRIRLRPPRLPRPRPRPFHVPRP | Escherichia coli TOP10 | -0.0193 |
| RRIRLRPPRLPRPRPRPRCSPRP | Escherichia coli TOP10 | 0.0191 |
| RRIRTRPPRLPRPRPRPFHGPRP | Escherichia coli TOP10 | -0.0212 |
| RRIRARPPRLPRPRPRPYKVPRP | Escherichia coli TOP10 | -0.00867 |

(Q) Fill in the blank: the reported shrunken log2 fold change of RRIRMRPPRLPRPRPRPSCEPRP is ____.
(A) 0.541

(Q) Fill in the blank: the reported shrunken log2 fold change of RRIRHRPPRLPRPRPRPCQTPRP is ____.
(A) -0.0148

(Q) Fill in the blank: the reported shrunken log2 fold change of RRIRDRPPRLPRPRPRPTTMPRP is ____.
(A) 0.0275

(Q) Fill in the blank: the reported shrunken log2 fold change of RRIRLRPPRLPRPRPRPLNPPRP is ____.
(A) -0.0831

(Q) Fill in the blank: the reported shrunken log2 fold change of RRIRTRPPRLPRPRPRPDIYPRP is ____.
(A) -0.138

(Q) Fill in the blank: the reported shrunken log2 fold change of RRIRPRPPRLPRPRPRPAGRPRP is ____.
(A) 0.395

====

Tested on: Escherichia coli TOP10;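 also: peptides expressed intracellularly from a pBAD plasmid library in pooled LB shake-flask culture, induced with 0.3% L-arabinose, DNA abundance read by NGS, three biological replicates, DESeq2 with apeglm shrinkage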
Test: shrunken log2 fold change of peptide-encoding DNA abundance (4.5 h post-induction vs induction); higher = less antimicrobial activity (less host growth inhibition)
Details: time post-induction: 4.5 h; library: site-saturation at positions 5, 18, 19, 20
Listing of entries alongside the reported shrunken log2 fold change.

| ordered residues | shrunken log2 fold change |
| --- | --- |
| RRIRNRPPRLPRPRPRPLPKPRP | 0.402 |
| RRIRTRPPRLPRPRPRPFMCPRP | -0.126 |
| RRIRRRPPRLPRPRPRPRCAPRP | 0.469 |
| RRIRSRPPRLPRPRPRPILTPRP | -0.125 |
| RRIRDRPPRLPRPRPRPTNSPRP | 0.115 |

(Q) Fill in the blank: the reported shrunken log2 fold change of RRIRNRPPRLPRPRPRPMWHPRP is ____.
(A) -0.404

(Q) Fill in the blank: the reported shrunken log2 fold change of RRIRRRPPRLPRPRPRPMSLPRP is ____.
(A) -0.0564

(Q) Fill in the blank: the reported shrunken log2 fold change of RRIRSRPPRLPRPRPRPNRAPRP is ____.
(A) -0.0803

(Q) Fill in the blank: the reported shrunken log2 fold change of RRIRKRPPRLPRPRPRPGNAPRP is ____.
(A) 0.418

(Q) Fill in the blank: the reported shrunken log2 fold change of RRIRCRPPRLPRPRPRPGNNPRP is ____.
(A) -0.47

(Q) Fill in the blank: the reported shrunken log2 fold change of RRIRFRPPRLPRPRPRPNASPRP is ____.
(A) -0.304

(Q) Fill in the blank: the reported shrunken log2 fold change of RRIRERPPRLPRPRPRPMIMPRP is ____.
(A) -0.00163

(Q) Fill in the blank: the reported shrunken log2 fold change of RRIRFRPPRLPRPRPRPPVDPRP is ____.
(A) 0.41

(Q) Fill in the blank: the reported shrunken log2 fold change of RRIRFRPPRLPRPRPRPSFEPRP is ____.
(A) -0.532

(Q) Fill in the blank: the reported shrunken log2 fold change of RRIRARPPRLPRPRPRPFKPPRP is ____.
(A) -0.0739

(Q) Fill in the blank: the reported shrunken log2 fold change of RRIRGRPPRLPRPRPRPLPTPRP is ____.
(A) 1.14
